System: Isocitrate lyase (Candida albicans, UniProt Q9P8Q7) | Read-out: IC50
Sequence (Q9P8Q7 whole entry): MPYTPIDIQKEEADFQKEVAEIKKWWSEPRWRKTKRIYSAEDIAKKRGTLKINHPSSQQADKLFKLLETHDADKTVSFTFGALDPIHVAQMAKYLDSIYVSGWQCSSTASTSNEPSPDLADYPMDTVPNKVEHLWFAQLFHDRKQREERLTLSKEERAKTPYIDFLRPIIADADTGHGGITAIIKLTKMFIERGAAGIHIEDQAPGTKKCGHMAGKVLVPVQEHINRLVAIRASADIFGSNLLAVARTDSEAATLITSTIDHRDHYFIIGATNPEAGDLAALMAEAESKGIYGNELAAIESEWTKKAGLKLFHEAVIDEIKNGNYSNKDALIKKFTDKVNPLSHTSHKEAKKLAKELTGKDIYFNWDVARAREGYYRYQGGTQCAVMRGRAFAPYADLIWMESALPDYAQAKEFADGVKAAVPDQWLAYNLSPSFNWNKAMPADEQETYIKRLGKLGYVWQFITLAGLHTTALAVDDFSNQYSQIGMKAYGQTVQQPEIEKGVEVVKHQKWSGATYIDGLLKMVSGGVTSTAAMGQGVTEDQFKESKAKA
Write the number in µM without appending the unit.

- compound: "C=C(CC(=O)O)C(=O)O [ITACONATE]"
  IC50 / µM: 44.6
- compound: "O=S(=O)([O-])O/C=C/c1ccc(OC2Oc3ccc(/C=C/OS(=O)(=O)[O-])cc3OC2c2ccc(O)c(O)c2)c(O)c1.[Na+].[Na+] (centres undefined)"
  IC50 / µM: 271
- compound: "COC(OC)C(OC)c1ccc(O)c(O)c1 (centres undefined)"
  IC50 / µM: 126

Moving on to the next compound.
Please indicate recorded IC50 of O=S(=O)([O-])O/C=C/c1ccc2c(c1)OC(c1ccc(O)c(O)c1)C(OS(=O)(=O)[O-])O2.[Na+].[Na+] (centres undefined) measured with Isocitrate lyase (Candida albicans, UniProt Q9P8Q7).
341

----------
tested on: K562; assay: Antitumor activity against human K562 cells; type: functional, cell-based
The source made the active and inactive calls. The rule behind the calls is not given here.
metric: Activity

// known answers, use as guide
- compound: "O=S(=O)(O)O/C=C/c1ccc2c(c1)OC(C(O)c1ccc(O)c(O)c1)O2 (stereo unspecified)"
  Activity: "inactive"
- compound: "CN(C)C(=N)N.CN(C)C(=N)N.O=S(=O)(O)O/C=C/c1ccc(OC2Oc3ccc(/C=C/OS(=O)(=O)O)cc3OC2c2ccc(O)c(O)c2)c(O)c1 (stereo unspecified)"
  Activity: "inactive"
- compound: "O=S(=O)([O-])O/C=C/c1ccc(OC2Oc3cc(/C=C/OS(=O)(=O)[O-])ccc3OC2c2ccc(O)c(O)c2)c(O)c1.[Na+].[Na+] (stereo unspecified)"
  Activity: "inactive"
- compound: "CN(C)C(=N)N.O=S(=O)(O)O/C=C/c1ccc2c(c1)OC(C(O)c1ccc(O)c(O)c1)O2 (stereo unspecified)"
  Activity: "inactive"
- compound: "O=S(=O)(O)O/C=C/c1ccc(OC2Oc3ccc(/C=C/OS(=O)(=O)O)cc3OC2c2ccc(O)c(O)c2)c(O)c1 (stereo unspecified)"
  Activity: "inactive"

Moving on to the next compound.
Write down Activity measured for item CN(C)CCc1cn(C(c2ccc(O)c(O)c2)C2Oc3ccc(/C=C\OS(=O)(=O)O)cc3O2)cn1 (stereo unspecified)
inactive

----------
Form field: IC50 (one value per entry).
test: Inhibition of Staphylococcus aureus sortase A

- compound: "O=S(=O)([O-])O/C=C/c1ccc(O)c(O)c1.[Na+]"
  IC50: "14.6 µg/mL"
- compound: "COC(OC)C(OC)c1ccc(O)c(O)c1 (stereo not drawn)"
  IC50: "> 200 µg/mL"
- compound: "O=S(=O)([O-])O/C=C/c1ccc2c(c1)OC(C(O)c1ccc(O)c(O)c1)O2.[Na+] (stereo not drawn)"
  IC50: "> 200 µg/mL"

Write down IC50 measured for item O=S(=O)([O-])O/C=C/c1ccc2c(c1)OC(c1ccc(O)c(O)c1)C(OS(=O)(=O)[O-])O2.[Na+].[Na+] (stereo not drawn)
> 200 µg/mL

Write down IC50 measured for item CN(C)C(=N)N.CN(C)C(=N)N.O=S(=O)(O)O/C=C/c1ccc(OC2Oc3ccc(/C=C/OS(=O)(=O)O)cc3OC2c2ccc(O)c(O)c2)c(O)c1 (stereo not drawn)
> 200 µg/mL

----------
Form field: IC50 (one value per entry).
test: Inhibition of Staphylococcus aureus sortase A
Write the number in µg/mL without appending the unit.

Write down IC50 measured for item O=S(=O)([O-])O/C=C/c1ccc(OC2Oc3ccc(/C=C/OS(=O)(=O)[O-])cc3OC2c2ccc(O)c(O)c2)c(O)c1.[Na+].[Na+] (stereo not drawn)
163.5

Write down IC50 measured for item CN(C)C(=N)N.O=S(=O)(O)O/C=C/c1ccc2c(c1)OC(C(O)c1ccc(O)c(O)c1)O2 (stereo not drawn)
82.4

Write down IC50 measured for item `O=S(=O)([O-])O/C=C\c1ccc(O)c(O)c1.[Na+]`
34.2

Write down IC50 measured for item CN(C)CCc1cn(C(c2ccc(O)c(O)c2)C2Oc3ccc(/C=C\OS(=O)(=O)[O-])cc3O2)cn1.Cl.[Na+] (stereo not drawn)
68.3
